testSystem: Gag-Pol polyprotein (Human immunodeficiency virus type 1 group M subtype B (isolate HXB2))
runDescription: RNase H inhibition, HIV 1 Gag Pol polyprotein, FRET biochemical assay, screening (AID 372)
reportedConditions: HIV-1 RT RNase H, FRET RNA/DNA substrate fluorescence; at 10 µM; active compounds read high
The whole screen tested about 100,000 compounds, of which about 770 (0.77%) were called active. What follows is part of a selection rich in actives, with near analogues and random picks from the rest.
Could you please report measured inhibition for the items listed next?
One number for each entry, in %.

Answered cases to consult:
Complete the entry with inhibition for CCc1c(C)c2ccc(OC)c(C)c2oc1=O
8

Complete the entry with inhibition for COc1ccc(Cl)cc1NC(=O)c1cc(-c2ccccc2)nc2ccccc12
0

Complete the entry with inhibition for O=C(NC(=S)Nc1ccc(F)c([N+](=O)[O-])c1)c1cccc(Cl)c1
22

Complete the entry with inhibition for COc1ccc2oc(=O)c(-c3csc(NC(=O)/C=C\C(=O)O)n3)cc2c1
3

Complete the entry with inhibition for COc1ccc2oc(=O)c(-c3csc(Nc4ccc(C(C)=O)cc4)n3)cc2c1
1

Give measured inhibition for every item shown.
1. CC1=NN(c2ccccc2)C(=O)C1C(c1ccc([N+](=O)[O-])cc1)C1C(=O)N(c2ccccc2)N=C1C (stereo not given)
2. CC(=O)NC(c1ccccc1)C1C(=O)N(c2ccccc2)N=C1C (stereo not given)
3. CC1=NN(c2ccccc2)C(=O)C1C(c1ccccc1)C(C#N)C#N (stereo not given)
4. COc1ccc2oc(=O)c(-c3nnc(Nc4cccc(C)c4)s3)cc2c1
5. COc1ccc(Nc2nc(-c3cc4cc(OC)ccc4oc3=O)cs2)cc1

1: 4; 2: 4; 3: 54; 4: 50; 5: 13

###

testSystem: Gag-Pol polyprotein (Human immunodeficiency virus type 1 group M subtype B (isolate HXB2)) (UniProt P04585)
runDescription: RNase H inhibition, HIV 1 Gag Pol polyprotein, FRET biochemical assay, screening (AID 372)
reportedConditions: HIV-1 RT RNase H, FRET RNA/DNA substrate fluorescence; at 10 µM
Out of some 100,000 compounds screened, about 770 (0.77%) were called active. No stated cut-off is given here; in the data, active means inhibition above about 50%; inactive means the rest. The full list was thinned out, with actives kept by preference.
Your reply should match one of these outcome classes. T (active), F (inactive)

Status in this test for COc1cc([N+](=O)[O-])ccc1-c1ccc(/C=C2\C(=O)N(c3ccc(S(N)(=O)=O)cc3)N=C2C)o1 ?
T

Others:
Status in this test for CN1C(=O)C(=Cc2ccc(-c3ccc(Cl)c([N+](=O)[O-])c3)o2)C(=O)N(C)C1=S ?
F

Status in this test for CC1=NN(c2ccc(S(N)(=O)=O)cc2)C(=O)/C1=C\c1ccc(-c2cccc([N+](=O)[O-])c2)o1 ?
T

###

Could you please report measured inhibition for the items listed next?
testSystem: Gag-Pol polyprotein (Human immunodeficiency virus type 1 group M subtype B (isolate HXB2))
runDescription: RNase H inhibition, HIV 1 Gag Pol polyprotein, FRET biochemical assay, screening (AID 372)
reportedConditions: HIV-1 RT RNase H, FRET RNA/DNA substrate fluorescence; at 10 µM; active compounds read high
In all, about 100,000 compounds went through this assay and about 770 (0.77%) were called active. The list comes from a sample in which actives are over-represented; it also holds close analogues and randomly drawn compounds.
One number for each entry, in %.

Give measured inhibition for every item shown.
1. O=C(Oc1ccc2oc(=O)sc2c1)c1ccccc1
2. COc1ccc(S(=O)(=O)N(CC(=O)NCc2ccccc2)Cc2ccccc2)cc1

[6, 10]

Give measured inhibition for every item shown.
1. N=C1S/C(=C\c2ccc(N3CCOCC3)cc2)C(=O)N1c1ccc(Br)cc1
2. COc1ccccc1NC(=O)C(=O)NCc1ccccc1
3. COc1ccc(S(=O)(=O)N(CC(=O)NCc2ccc(Cl)cc2)Cc2ccccc2)cc1
4. CC(=O)Oc1ccc(C(=O)Nc2cccc(C(=O)O)c2C)cc1
5. CC(=O)Oc1ccc(C(=O)Nc2cccc([N+](=O)[O-])c2C)cc1
6. COc1ccc(CNC(=O)C(=O)Nc2ccccc2OC)cc1
7. COC(=O)C1=C(C)N(c2ccccc2)C(=O)/C1=C\c1ccc(C(=O)OC)cc1
8. COc1cc(/C=C2/C(=O)NC(=O)N(Cc3ccco3)C2=O)ccc1OCC(N)=O

1. 53
2. 27
3. 60
4. 55
5. 6
6. 44
7. 15
8. 0

Give measured inhibition for every item shown.
1. COc1ccc(C)cc1NC(=O)C(=O)NCc1ccncc1
2. COc1ccc(C)cc1NC(=O)C(=O)NCc1cccnc1
3. COc1ccc(C)cc1NC(=O)C(=O)NCc1ccc(Cl)cc1
4. COc1ccc(CNC(=O)C(=O)Nc2ccc(OC)cc2)cc1
5. Cc1ccc(N2C(=O)C(=Cc3ccc(O)cc3)C(=O)N(c3ccc(C)cc3)C2=S)cc1
6. Cc1ccc(N2C(=O)/C(=C/c3ccc(O)cc3)C(=O)NC2=S)cc1
7. COc1ccc2c(c1OC)C(=O)OC2Nc1cccc([N+](=O)[O-])c1 (stereo not drawn)
8. COc1ccc(NC(=O)C(=O)NCc2ccc(Cl)cc2)cc1

[55, 40, 44, 0, 56, 6, 1, 52]

Give measured inhibition for every item shown.
1. COc1ccc(CNC(=O)C(=O)NCc2ccc(Cl)cc2)cc1
2. O=C1NC(=O)C(=Cc2ccccc2OCc2ccccc2F)C(=O)N1

15
4

###

testSystem: Gag-Pol polyprotein (Human immunodeficiency virus type 1 group M subtype B (isolate HXB2)) (UniProt P04585)
runDescription: RNase H inhibition, HIV 1 Gag Pol polyprotein, FRET biochemical assay, screening (AID 372)
reportedConditions: HIV-1 RT RNase H, FRET RNA/DNA substrate fluorescence; at 10 µM; active compounds read high
Among all 100,000 compounds or so, about 770 (0.77%) were called active. For the sample, actives were picked, then their nearest neighbours and some compounds at random.
Please enter Yes where inhibition is greater than or equal to 10%, and No where it is lower.

The following compounds have reported results that may help.
Form field: inhibition at least 10%? Entry: CC(C)(C)c1cc(C(=O)N/N=C\c2ccncc2)n[nH]1
No

Form field: inhibition at least 10%? Entry: COc1ccc(S(=O)(=O)Nc2cccc(C(F)(F)F)c2)cc1
No

Form field: inhibition at least 10%? Entry: O=S(=O)(Nc1cccc(F)c1)c1ccc2ccccc2c1
Yes

Form field: inhibition at least 10%? Entry: CCOC(=O)c1c[nH]c2ccc(Cl)cc2c1=O
Yes

Form field: inhibition at least 10%? Entry: O=C(Nc1ccc2oc(-c3cccc4ccccc34)nc2c1)c1cc([N+](=O)[O-])ccc1Cl
Yes

Others:
Form field: inhibition at least 10%? Entry: Cc1cccc(-n2c(CCN3C(=O)c4ccccc4C3=O)nc3ccccc3c2=O)n1
Yes

Form field: inhibition at least 10%? Entry: O=C1c2ccccc2C(=O)N1CCc1nc2ccccc2c(=O)n1-c1ccccn1
Yes

Form field: inhibition at least 10%? Entry: O=S(=O)(Nc1cccc(I)c1)c1ccccc1
No

Form field: inhibition at least 10%? Entry: COc1ccc(C(=O)N/C(=C\c2cc(OC)c(OC)cc2[N+](=O)[O-])C(=O)Nc2ccc(C)cc2C)cc1
Yes

Form field: inhibition at least 10%? Entry: CCC(Oc1ccccc1)C(=O)Nc1cc(Cl)ccc1OC (stereo unspecified)
Yes

Form field: inhibition at least 10%? Entry: O=S(=O)(Nc1cccc(Br)c1)c1ccc2ccccc2c1
Yes

###

Could you please report measured inhibition for the items listed next?
testSystem: Gag-Pol polyprotein (Human immunodeficiency virus type 1 group M subtype B (isolate HXB2)) (UniProt P04585)
runDescription: RNase H inhibition, HIV 1 Gag Pol polyprotein, FRET biochemical assay, screening (AID 372)
reportedConditions: HIV-1 RT RNase H, FRET RNA/DNA substrate fluorescence; at 10 µM; active compounds read high
The campaign covered roughly 100,000 compounds. About 770 (0.77%) were called active. The sample holds actives, similar compounds and a random draw of the others, so the mix is not that of the screen.

Answered cases to consult:
Complete the entry with inhibition for Cc1cc(Cl)ccc1OCC(=O)Nc1ccccc1C(N)=O
7% (inactive)

Complete the entry with inhibition for CNC(=O)OCCc1ccc(-c2ccccc2)o1
4% (inactive)

Complete the entry with inhibition for CC(C)NS(=O)(=O)c1ccc(Br)cc1
0% (inactive)

Complete the entry with inhibition for COC(=O)c1ccccc1NC(=O)COc1ccc(Cl)cc1C
4% (inactive)

Complete the entry with inhibition for COc1ccc(/C=C/C(=O)Nc2ccc(I)cc2)cc1OC
16% (inactive)

Consider now this further molecule.
Complete the entry with inhibition for CCOC(=O)c1c(NC(=O)COc2ccc(Cl)cc2C)sc(C(N)=O)c1C
12% (inactive)

###

Could you please report measured inhibition for the items listed next?
testSystem: Gag-Pol polyprotein (Human immunodeficiency virus type 1 group M subtype B (isolate HXB2)) (UniProt P04585)
runDescription: RNase H inhibition, HIV 1 Gag Pol polyprotein, FRET biochemical assay, screening (AID 372)
reportedConditions: HIV-1 RT RNase H, FRET RNA/DNA substrate fluorescence; at 10 µM; active compounds read high
Out of some 100,000 compounds screened, about 770 (0.77%) were called active. Many of the other results were omitted from the sample, so actives are more common in it than they were.

Answered cases to consult:
Complete the entry with inhibition for O=C(N/N=C/c1cc(Cl)cc([N+](=O)[O-])c1O)/C(=C/C=C/c1ccccc1)NC(=O)c1ccccc1
19% (inactive)

Complete the entry with inhibition for CC(C)OC(=O)c1c(NC(=O)c2ccc([N+](=O)[O-])cc2Cl)sc2c1CCCCC2
31% (inactive)

Complete the entry with inhibition for O=C(O)CCCN1C(=O)/C(=C/c2cccc(Br)c2)SC1=S
10% (inactive)

Complete the entry with inhibition for Cc1cc(C)c(S(=O)(=O)N2CCCC2=O)c(C)c1
0% (inactive)

Complete the entry with inhibition for Cc1ccc(C)c(N(CC(=O)Nc2c(C)n(C)n(-c3ccccc3)c2=O)S(=O)(=O)c2ccccc2)c1
3% (inactive)

Complete the entry with inhibition for COc1ccc(-n2cnc(N)c2C(=O)c2cccc([N+](=O)[O-])c2)cc1
1% (inactive)

Complete the entry with inhibition for CCC(=O)Nc1cc(-c2nc3cc(Cl)ccc3o2)ccc1C
0% (inactive)

Complete the entry with inhibition for CCOC(=O)c1ccc(NC(=O)Cc2ccc(Br)cc2)cc1
3% (inactive)

Complete the entry with inhibition for COc1ccc(C(=O)N/C(=C\c2ccc(-c3cccc([N+](=O)[O-])c3)o2)C(=O)NCc2ccncc2)cc1
0% (inactive)

Consider now this further molecule.
Complete the entry with inhibition for O=C(Nc1cccc(O)c1)c1cc2nc(-c3ccc(Cl)cc3)cc(C(F)(F)F)n2n1
11% (inactive)
